Source of measurements: patent US9937194B1

The following compounds are shown together with reported Cell Toxicity (% cell death) values.
Assay type: cell-based
Details: test concentration not given
Expressed in %, but write only the number.

>>> recorded_result("CC[C@H]1OC(=O)[C@@](C)(F)C(=O)[C@H](C)[C@@H](O[C@@H]2O[C@H](C)[C@@H](OC(=O)Nc3ccccc3)[C@H](N(C)C)[C@H]2O)[C@@](C)(OC)C[C@@H](C)C(=O)[C@H](C)[C@H]2N(CCCCn3cc(-c4ccccn4)nn3)C(=O)O[C@]12C")
"−7"

Here is the next item to consider.
Give the measured Cell Toxicity (% cell death) for CCC1OC(=O)C(C)C(OC2OCC(O)C(N(C)C)C2O)C(C)C(OC2OC(C)CC(N(C)C)C2O)C(C)(O)CC(C)CN(C(C)=O)C(C)C2OC(=O)OC12C (mixture of isomers)
26

---

The following compounds are shown together with reported MIC E. coli ATCC 25922 values.
Tested on: E. coli ATCC 25922
Experiment: MIC
Format: cell-based
Settings: in µg/mL

>>> recorded_result("CCC1OC(=O)C(C)C(=O)C(C)C(OC2OC(C)CC(N(C)C)C2O)C(C)(OC)CC(C)C(=O)C(C)C2N(CCCCN)C(=O)OC12C (stereo not drawn)")
">64"
>>> recorded_result("CCC1OC(=O)C(C)(F)C(=O)C(C)C(OC2OC(C)CC(N(C)C)C2O)C(C)(OC)CC(C)C(=O)C(C)C2N(CCCCn3cc(Cn4nnc5ccccc54)nn3)C(=O)OC12C (stereo not drawn)")
">64"
>>> recorded_result("CCC1OC(=O)C(C)C(OC2OCC(O)C(NC)C2O)C(C)C(OC2OC(C)CC(N(C)C)C2O)C(C)(O)CC(C)CN(C(C)=O)C(C)C2OC(=O)OC12C (mixture of isomers)")
">64"

Tell me its MIC E. coli ATCC 25922 on E. coli ATCC 25922: CCC1OC(=O)C(C)C(OC2OCC(O)C(N(C)C)C2O)C(C)C(OC2OC(C)CC(N(C)C)C2O)C(C)(O)CC(C)CN(C(C)=O)C(C)C2OC(=O)OC12C (mixture of isomers)
>64

Tell me its MIC E. coli ATCC 25922 on E. coli ATCC 25922: CCC1OC(=O)C(C)C(OC2CC(C)(OC)C(O)C(C)O2)C(C)C(OC2OC(C)CC(N(C)C)C2O)C(C)(O)CC(C)CN(C)C(C)C2OC(=O)OC12C (stereo not drawn)
8-32

Tell me its MIC E. coli ATCC 25922 on E. coli ATCC 25922: CC[C@H]1OC(=O)[C@H](C)C(=O)[C@H](C)[C@@H](O[C@@H]2O[C@H](C)C[C@H](N(C)C)[C@H]2O)[C@@](C)(OC)C[C@@H](C)CN(C(=O)CCCn2cc(-c3ccc(Br)cc3)nn2)[C@H](C)[C@@H](O)[C@]1(C)O
>64

---

The following molecules are shown together with reported MIC S. pneumoniae ATCC 49619 values.
Test system: S. pneumoniae ATCC 49619
Assay: MIC
Type: cell-based
Expressed in mg/L, but write only the number.

>>> recorded_result("CC[C@H]1OC(=O)[C@H](C)C(=O)[C@H](C)[C@@H](O[C@@H]2O[C@H](COC(=O)c3ccccc3)[C@@H](N)[C@@H]2O)[C@@](C)(OC)C[C@@H](C)C(=O)[C@H](C)[C@H]2N(CCCCn3cc(-c4ccccn4)nn3)C(=O)O[C@]12C")
32

Give the measured MIC S. pneumoniae ATCC 49619 for CCC1OC(=O)C(C)C(OC2OCC(O)C(NC)C2O)C(C)C(OC2OC(C)CC(N(C)C)C2O)C(C)(O)CC(C)CN(C(C)=O)C(C)C2OC(=O)OC12C (mixture of isomers)
32

---

Format: cell-based
Conditions: test concentration not given
The following compounds are shown together with reported Cell Toxicity (% cell death) values.
Expressed in %, but write only the number.

Reference set, count: 5
>>> recorded_result("CCC1OC(=O)C(C)C(OC2CC(C)(OC)C(OC(C)=O)C(C)O2)C(C)C(OC2OC(C)CC(N(C)C)C2O)C(C)(OC)CC(C)C(=O)C(C)C2N(CCCCn3cc(CN(C)C)nn3)C(=O)OC12C (stereo not shown)")
"−3"
>>> recorded_result("CC[C@H]1OC(=O)[C@H](C)C(=O)[C@H](C)[C@@H](O[C@@H]2O[C@H](COC(=O)c3ccccc3)[C@@H](N)[C@@H]2O)[C@@](C)(OC)C[C@@H](C)C(=O)[C@H](C)[C@H]2N(CCCCn3cc(-c4ccccn4)nn3)C(=O)O[C@]12C")
"−2"
>>> recorded_result("CCC1OC(=O)C(C)C(OC2CC(C)(OC)C(O)C(C)O2)C(C)C(OC2OC(C)CC(N(C)C)C2O)C(C)(O)CC(C)CN(C)C(C)C2OC(=O)OC12C (stereo not shown)")
"−8"
>>> recorded_result("CCC1OC(=O)C(C)C(OC2CC(C)(OC)C(OC(C)=O)C(C)O2)C(C)C(OC2OC(C)CC(N(C)C)C2O)C(C)(OC)CC(C)C(=O)C(C)C2N(CCCCn3cc(CO)nn3)C(=O)OC12C (stereo not shown)")
"−8"
>>> recorded_result("CCC1OC(=O)C(C)C(=O)C(C)C(OC2OC(C)CC(N(C)C)C2O)C(C)(OC)CC(C)C(=O)C(C)C2N(CCCCN)C(=O)OC12C (stereo not shown)")
6

Here is the next item to consider.
Give the measured Cell Toxicity (% cell death) for CC[C@H]1OC(=O)[C@H](C)C(=O)[C@H](C)[C@@H](O[C@H]2C[C@@H](N(C)C)[C@H](O)[C@@H](C)O2)[C@@](C)(OC)C[C@@H](C)C(=O)[C@H](C)[C@H]2N(CCCCn3cc(-c4ccccn4)nn3)C(=O)O[C@]12C
3

---

Tested on: H. influenzae ATCC 49247
Assay: MIC
Format: cell-based
QUANTITY: MIC H. influenzae ATCC 49247

>>> recorded_result("CCC1OC(=O)C(C)C(=O)C(C)C(OC2OC(C)CC(N(C)C)C2O)C(C)(OC)CC(C)C(=O)C(C)C2N(CCCCN)C(=O)OC12C (centres unmarked) [Example 1]")
"> 64 µg/mL"
>>> recorded_result("CC[C@H]1OC(=O)[C@H](C)C(=O)[C@H](C)[C@@H](O[C@@H]2O[C@H](C)C[C@H](N(C)C)[C@H]2O)[C@@](C)(OC)C[C@@H](C)CN(C(=O)CCCn2cc(-c3ccc(Br)cc3)nn2)[C@H](C)[C@@H](O)[C@]1(C)O [Example 41]")
"> 64 µg/mL"
>>> recorded_result("CCC1OC(=O)C(C)C(OC2CC(C)(OC)C(OC(C)=O)C(C)O2)C(C)C(OC2OC(C)CC(N(C)C)C2O)C(C)(OC)CC(C)C(=O)C(C)C2N(CCCCn3cc(CO)nn3)C(=O)OC12C (centres unmarked) [Example 25]")
"4 µg/mL"

Give the measured MIC H. influenzae ATCC 49247 for CC[C@H]1OC(=O)[C@H](C)C(=O)[C@H](C)[C@@H](O[C@@H]2O[C@H](C)[C@@H](OC(C)=O)[C@H](NC(C)=O)[C@H]2OC(C)=O)[C@@](C)(OC)C[C@@H](C)C(=O)[C@H](C)[C@H]2N(CCCCn3cc(-c4ccccn4)nn3)C(=O)O[C@]12C [Example 23]
> 64 µg/mL

Give the measured MIC H. influenzae ATCC 49247 for CCC1OC(=O)C(C)(F)C(=O)C(C)C(OC2OC(C)CC(N(C)C)C2O)C(C)(OC)CC(C)C(=O)C(C)C2N(CCCCn3cc(Cn4nnc5ccccc54)nn3)C(=O)OC12C (centres unmarked) [Example 22]
2 µg/mL

Give the measured MIC H. influenzae ATCC 49247 for CCC1OC(=O)C(C)C(OC2CC(C)(OC)C(O)C(C)O2)C(C)C(OC2OC(C)CC(N(C)C)C2O)C(C)(O)CC(C)CN(C)C(C)C2OC(=O)OC12C (centres unmarked) [Example 42]
4 µg/mL

Give the measured MIC H. influenzae ATCC 49247 for CCC1OC(=O)C(C)C(OC2OCC(O)C(N(C)C)C2O)C(C)C(OC2OC(C)CC(N(C)C)C2O)C(C)(O)CC(C)CN(C(C)=O)C(C)C2OC(=O)OC12C (mixture of isomers) [Example 40]
> 64 µg/mL

Give the measured MIC H. influenzae ATCC 49247 for CCC1OC(=O)C(C)C(OC2CC(C)(OC)C(OC(C)=O)C(C)O2)C(C)C(OC2OC(C)CC(N(C)C)C2O)C(C)(OC)CC(C)C(=O)C(C)C2N(CCCCn3cc(CN(C)C)nn3)C(=O)OC12C (centres unmarked) [Example 24]
64 µg/mL

---

System: MMP9
Assay: PMA-induced MMP9 expression in U937 cells (gelatin zymography)
Type: cell-based, human
Details: test concentration not given; bracketed second value not explained
QUANTITY: MMP9 inhibition (%)

>>> recorded_result("CCC1OC(=O)C(C)(F)C(=O)C(C)C(OC2OC(C)CC(N(C)C)C2O)C(C)(OC)CC(C)C(=O)C(C)C2N(CCCCn3cc(Cn4nnc5ccccc54)nn3)C(=O)OC12C (stereo not shown) [Example 22]")
"38 (23) %"
>>> recorded_result("CC[C@H]1OC(=O)[C@H](C)[C@@H](O[C@H]2C[C@@](C)(OC)[C@@H](O)[C@H](C)O2)[C@H](C)[C@@H](O[C@@H]2O[C@H](C)C[C@H](N(C)C)[C@H]2O)[C@](C)(O)C[C@@H](C)CN(C)[C@H](C)[C@@H](O)[C@]1(C)O [AZI, azithromycin, reference compound]")
"33 (25) %"
>>> recorded_result("CCC1OC(=O)C(C)C(OC2CC(C)(OC)C(OC(C)=O)C(C)O2)C(C)C(OC2OC(C)CC(N(C)C)C2O)C(C)(OC)CC(C)C(=O)C(C)C2N(CCCCn3cc(CO)nn3)C(=O)OC12C (stereo not shown) [Example 25]")
"10%"

Here is the next item to consider.
Give the measured MMP9 inhibition (%) for CCC1OC(=O)C(C)C(OC2CC(C)(OC)C(OC(C)=O)C(C)O2)C(C)C(OC2OC(C)CC(N(C)C)C2O)C(C)(OC)CC(C)C(=O)C(C)C2N(CCCCn3cc(CN(C)C)nn3)C(=O)OC12C (stereo not shown) [Example 24]
11%
